# TESTED TARGET: hERG (KCNH2) (Homo sapiens)
# Sequence (Q12809 whole entry): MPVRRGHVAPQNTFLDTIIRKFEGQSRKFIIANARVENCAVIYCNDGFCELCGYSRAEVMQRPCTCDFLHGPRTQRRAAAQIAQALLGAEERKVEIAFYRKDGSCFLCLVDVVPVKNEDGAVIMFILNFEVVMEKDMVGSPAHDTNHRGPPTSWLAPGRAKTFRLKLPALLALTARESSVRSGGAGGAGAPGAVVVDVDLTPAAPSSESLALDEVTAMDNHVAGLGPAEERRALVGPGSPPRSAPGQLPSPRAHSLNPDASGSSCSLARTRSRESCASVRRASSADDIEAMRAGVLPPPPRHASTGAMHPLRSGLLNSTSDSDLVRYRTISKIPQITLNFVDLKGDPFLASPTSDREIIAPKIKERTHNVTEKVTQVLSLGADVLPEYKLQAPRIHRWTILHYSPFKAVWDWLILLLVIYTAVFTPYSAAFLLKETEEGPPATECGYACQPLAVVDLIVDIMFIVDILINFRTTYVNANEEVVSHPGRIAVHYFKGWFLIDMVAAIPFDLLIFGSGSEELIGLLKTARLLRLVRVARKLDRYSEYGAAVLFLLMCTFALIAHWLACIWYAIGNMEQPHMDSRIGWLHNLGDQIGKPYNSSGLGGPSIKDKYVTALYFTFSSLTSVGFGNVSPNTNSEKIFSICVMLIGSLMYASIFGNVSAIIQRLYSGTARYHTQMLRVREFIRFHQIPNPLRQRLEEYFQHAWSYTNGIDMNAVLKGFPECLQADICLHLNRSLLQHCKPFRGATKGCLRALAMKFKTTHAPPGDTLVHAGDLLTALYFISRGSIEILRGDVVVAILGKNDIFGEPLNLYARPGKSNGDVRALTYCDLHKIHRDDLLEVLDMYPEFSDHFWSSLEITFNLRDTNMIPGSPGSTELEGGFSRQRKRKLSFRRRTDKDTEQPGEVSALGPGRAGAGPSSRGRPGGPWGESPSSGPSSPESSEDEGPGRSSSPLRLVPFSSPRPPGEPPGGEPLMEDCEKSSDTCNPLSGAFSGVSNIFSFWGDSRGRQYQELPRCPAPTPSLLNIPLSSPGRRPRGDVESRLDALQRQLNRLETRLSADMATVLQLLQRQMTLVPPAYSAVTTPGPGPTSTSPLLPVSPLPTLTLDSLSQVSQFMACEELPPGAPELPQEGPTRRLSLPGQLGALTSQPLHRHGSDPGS
# PROCEDURE SUMMARY: Inhibition of human ERG at 10 uM
PROPERTY: inhibition at 10 µM (%)

> print(dat)
                                   molecule             property  display.unit  result
1  CN(C)CCCOc1ccc(CCNC(=O)c2cc(Br)c[nH]2)cc1Br [DISPYRIN]  inhibition at 10 µM             %      50

Hey, just so you know, these numbers are from ChEMBL document CHEMBL1140141.
